The origin of these recorded values is PubChem BioAssay AID608.

tgt: Peptidyl-prolyl cis-trans isomerase FKBP1A (Homo sapiens) (UniProt P62942)
Sequence (P62942 whole entry, looked up): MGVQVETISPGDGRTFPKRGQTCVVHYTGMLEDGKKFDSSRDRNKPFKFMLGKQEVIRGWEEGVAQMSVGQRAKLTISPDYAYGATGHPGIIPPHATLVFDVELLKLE
assay explanation: small-molecule binding to FKBP12 – biophysical, NMR detection (AID 608)
test context: purified FKBP12
The source made the active and inactive calls. No rule for the calls is given here.
Respond using exactly one of the listed classes: active, inactive

// below: answered compounds
> print(dat)
                                 compound  group.label
1                     O=C(O)c1cccc2c1OCC2     inactive
2  O=S1(=O)CCC(NCCO)C1 (stereo not drawn)     inactive
3                  Cc1cc(N2CCN(C)CC2)ncn1     inactive

Query :: Write down the call the test reported for this compound. Item: Cc1oc(-c2ccccc2)nc1CC(=O)O
Result :: inactive

Query :: Write down the call the test reported for this compound. Item: O=C1C(=O)N(CN2CCN(CCO)CC2)c2ccccc21
Result :: inactive

Query :: Write down the call the test reported for this compound. Item: NCc1nc2ccccc2s1
Result :: inactive

Query :: Write down the call the test reported for this compound. Item: CC1CN(C(=O)c2sc3ccccc3c2Cl)CC(C)O1 (stereo not drawn)
Result :: inactive

Query :: Write down the call the test reported for this compound. Item: O=C(c1cnsn1)N1CCN(c2ccccn2)CC1
Result :: inactive

Query :: Write down the call the test reported for this compound. Item: NC(=O)c1ccsc1NC(=O)c1cccnc1
Result :: inactive

Query :: Write down the call the test reported for this compound. Item: NC(=O)c1cccnc1Oc1ccccc1
Result :: inactive

Query :: Write down the call the test reported for this compound. Item: N[C@@H](Cc1cc(I)c(Oc2cc(I)c(O)c(I)c2)c(I)c1)C(=O)O
Result :: inactive

Query :: Write down the call the test reported for this compound. Item: CC(=O)NCC1OCCc2ccccc21 (stereo not drawn)
Result :: inactive
